Recorded hygroscopic weight gain Day 10 (%), one value per entry.
Experiment notes: High-humidity stability test
Format: physicochemical
Condition context: 25° C., RH 95%±1%, day 10; mean value±standard error, three parallels
Number in %, nothing else.

• CN(C)CC(=O)O.Cl [Sample 1, N,N-dimethylglycine hydrochloride] = 80.69
• CN(C)CC(=O)[O-].CN(C)CC(=O)[O-].O=C(O)c1ccccc1.O=C(O)c1ccccc1.[Ca+2] = 3.69

Query: Given CN(C)CC(=O)[O-].[Na+] [Sample 2, Sodium N,N-dimethylglycinate] , state its recorded hygroscopic weight gain Day 10 (%).
Response: 52.44

Query: Given CCCCCCCCCCCCCC(=O)O.CCCCCCCCCCCCCC(=O)O.CN(C)CC(=O)[O-].CN(C)CC(=O)[O-].[Ca+2] , state its recorded hygroscopic weight gain Day 10 (%).
Response: 3.06

Query: Given CN(C)CC(=O)[O][Zn][O]C(=O)CN(C)C , state its recorded hygroscopic weight gain Day 10 (%).
Response: 2.88
